targetEntity: Tyrosine Hydroxylase (Bos taurus)
Sequence (P17289 1-491): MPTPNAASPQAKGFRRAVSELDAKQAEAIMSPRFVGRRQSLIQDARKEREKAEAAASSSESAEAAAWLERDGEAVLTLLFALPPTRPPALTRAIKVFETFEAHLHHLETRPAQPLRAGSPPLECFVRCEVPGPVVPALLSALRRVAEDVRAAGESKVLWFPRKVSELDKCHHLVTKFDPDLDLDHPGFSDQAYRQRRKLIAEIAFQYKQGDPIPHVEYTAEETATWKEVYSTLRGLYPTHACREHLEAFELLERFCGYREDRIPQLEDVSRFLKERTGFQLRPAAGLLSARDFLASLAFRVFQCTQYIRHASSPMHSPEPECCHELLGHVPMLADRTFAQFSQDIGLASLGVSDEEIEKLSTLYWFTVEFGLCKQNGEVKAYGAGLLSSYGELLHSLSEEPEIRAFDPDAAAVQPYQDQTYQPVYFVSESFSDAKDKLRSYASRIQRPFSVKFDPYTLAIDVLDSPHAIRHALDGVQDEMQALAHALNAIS
procedureDetails: Inhibition of tyrosine hydroxylase (TH)
Assay type: biochemical
protocolConditions: 100 mcg/cc
Classify as follows. Reported inhibition at 100 µg/mL greater than or equal to 30%: rule met. Reported inhibition at 100 µg/mL below: rule not met.

CC1=CC(=O)C(C(=O)CCc2cccc3ccccc23)C(=O)O1 (stereo not shown)    rule met
CC1=CC(=O)C(C(=O)CCc2cccc(O)c2)C(=O)O1 (stereo not shown)    rule met

[Q] Confirm if inhibition at 100 µg/mL reported for the compound COc1cccc(CCC(=O)C2C(=O)C=C(C)OC2=O)c1 (stereo not shown) is 30% or above.
[A] rule met

[Q] Confirm if inhibition at 100 µg/mL reported for the compound COc1ccc(CCC(=O)C2C(=O)C=C(C)OC2=O)cc1OC (stereo not shown) [reference compound] is 30% or above.
[A] rule met

[Q] Confirm if inhibition at 100 µg/mL reported for the compound CC1=CC(=O)C(C(=O)CCc2ccc(C(C)C)cc2)C(=O)O1 (stereo not shown) is 30% or above.
[A] rule not met

[Q] Confirm if inhibition at 100 µg/mL reported for the compound COc1cccc(CCC(=O)C2C(=O)C=C(C)OC2=O)c1O (stereo not shown) is 30% or above.
[A] rule not met

[Q] Confirm if inhibition at 100 µg/mL reported for the compound CC1=CC(=O)C(C(=O)CCc2c(O)ccc3ccccc23)C(=O)O1 (stereo not shown) is 30% or above.
[A] rule met

[Q] Confirm if inhibition at 100 µg/mL reported for the compound COc1cc(CCC(=O)C2C(=O)C=C(C)OC2=O)cc(OC)c1O (stereo not shown) is 30% or above.
[A] rule met

[Q] Confirm if inhibition at 100 µg/mL reported for the compound CC1=CC(=O)C(C(=O)CCc2ccc(Cl)cc2)C(=O)O1 (stereo not shown) is 30% or above.
[A] rule met

----------
targetEntity: Tyrosine Hydroxylase (Bos taurus, UniProt P17289)
procedureDetails: Inhibition of tyrosine hydroxylase (TH)
Type: biochemical
protocolConditions: 200 mcg/cc
The molecules listed here are annotated with their inhibition at 200 µg/mL.
Write the number in % without appending the unit.

CCOc1cc(CCC(=O)C2C(=O)C=C(C)OC2=O)ccc1O (stereo not shown)    24.4
CC1=CC(=O)C(C(=O)CCc2ccc(Cl)cc2)C(=O)O1 (stereo not shown)    64.8

[Q] Would you mind telling me what inhibition at 200 µg/mL value was observed for CC1=CC(=O)C(C(=O)CCc2ccc(C#N)cc2)C(=O)O1 (stereo not shown) ?
[A] 84.5

[Q] Would you mind telling me what inhibition at 200 µg/mL value was observed for CCOc1ccc(CCC(=O)C2C(=O)C=C(C)OC2=O)cc1 (stereo not shown) ?
[A] 10.1

[Q] Would you mind telling me what inhibition at 200 µg/mL value was observed for CC1=CC(=O)C(C(=O)CCc2ccccc2Cl)C(=O)O1 (stereo not shown) ?
[A] 48.4

[Q] Would you mind telling me what inhibition at 200 µg/mL value was observed for CC1=CC(=O)C(C(=O)CCc2c(O)ccc3ccccc23)C(=O)O1 (stereo not shown) ?
[A] 57.2

Values compiled from patent US3963756A.
